Experiment: chemical genetic growth profiling, strain panel (AID 1159580);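 note: tested at 20 µM; growth read once vehicle control cultures reached saturation at 30 °C; 1 = growth at the plate median or of vehicle wells; lower values mean less growth of the strain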
Conditions: S. cerevisiae deletion strains, growth OD, locus YNL020C, strain ARK1, hits give low values
The whole screen tested about 5,500 compounds, of which about 2,000 (36%) were called active. Roughly 18% stayed inconclusive and do not appear here. Some of the results follow.
Quantity: normalized growth
Answer as a number with no unit attached.

- Smiles notation: "O=C1c2ccccc2O[C@@H](c2ccccc2)[C@@H]1NCc1ccccc1"
  normalized growth: 0.88
- Smiles notation: "N/C(CSc1ncccc1C(F)(F)F)=N/OC(=O)Nc1cccc(Cl)c1"
  normalized growth: 0.919

Moving on to the next compound.
Consider "O=C1c2ccccc2O[C@@H](c2ccccc2)[C@@H]1NC1CCCCC1" . Its measured normalized growth is 0.901

###

Test: chemical genetic growth profiling, strain panel (AID 1159580)
Details: S. cerevisiae deletion strains, growth OD, locus YCL069W, strain vba3, hits give low values
The campaign covered roughly 5,500 compounds. About 2,000 (36%) were called active. Inconclusive results (about 18%) are left out. Some of the results follow.
Listing of entries alongside the reported normalized growth.

Recorded results for 5 compounds are shown here.
- Compound: "CC1(C)O[C@@H]2CC3C4CCC5=CC(=O)C=C[C@]5(C)[C@@]4(F)[C@@H](O)C[C@]3(C)[C@]2(C(=O)CO)O1 (stereo partly drawn)"
  Reading: "1.01 (inactive)"
- Compound: "CC(=O)[C@H]1CCC2C3CC=C4C[C@@H](O)CC[C@]4(C)C3CC[C@@]21C (stereo partly drawn)"
  Reading: "0.897 (active)"
- Compound: "C=CCCCCCCCCCCCC(O)CC(O)CO (stereo not drawn)"
  Reading: "0.991 (inactive)"
- Compound: "COc1cccc2c1cc([N+](=O)[O-])c1c(C(=O)O)cc3c(c12)OCO3"
  Reading: "1.02 (inactive)"
- Compound: "CC[N+]1(C)CCCC(OC(=O)C(O)(c2ccccc2)c2ccccc2)C1 (stereo not drawn)"
  Reading: "1.03 (inactive)"

Noted for "S=c1ccss1" : its normalized growth reads 1 (inactive)

Data point: CCC(/C=C/[C@@H](C)[C@H]1CCC2C3CC=C4C[C@@H](O)CC[C@]4(C)C3CC[C@@]21C)C(C)C (stereo partly drawn) ; normalized growth = 0.99 (inactive)

Lab note: measured normalized growth of CC(=O)OCC(=O)[C@H]1CCC2C3CC=C4C[C@@H](O)CC[C@]4(C)C3CC[C@@]21C (stereo partly drawn) was 0.893 (active)

###

Assay: chemical genetic growth profiling, strain panel (AID 1159580)
Settings: S. cerevisiae deletion strains, growth OD, locus YGL078C, strain dbp3, hits give low values
Out of some 5,500 compounds screened, about 2,000 (36%) were called active. Roughly 18% stayed inconclusive and do not appear here. The list shows a part of the results.
Quantity: normalized growth
Enter a number only.

Example results:
- Compound: "COc1ccc(-c2cc(=O)c3c(OC(C)=O)cc(OC(C)=O)cc3o2)cc1"
  normalized growth: 0.961
- Compound: "O=c1[nH]c2cc(Cl)c(Cl)cc2[nH]c1=O"
  normalized growth: 1.03
- Compound: "O=C(O)c1nc2cc(Cl)c(Cl)cc2[nH]c1=O"
  normalized growth: 0.992
- Compound: "Nc1ccc(C(=O)O)c(O)c1 (tested in a mixture with another compound)"
  normalized growth: 0.992
- Compound: "CC(=O)Oc1cc(-c2coc3cc(OC(C)=O)c(OC(C)=O)c(OC(C)=O)c3c2=O)cc(OC(C)=O)c1OC(C)=O"
  normalized growth: 1.01

What the record says about CCOC(=O)C1C(C=C(C)C)C1(C)C (stereo not drawn) : normalized growth is 1

Form field normalized growth, entry "CC(=O)Oc1cc(OC(C)=O)c2c(=O)c(-c3ccccc3)coc2c1" : 0.991

Briefly, normalized growth measured for "CC(=O)Nc1cccc(O)c1" : 0.994

###

Test: chemical genetic growth profiling, strain panel (AID 1159580);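 note: tested at 20 µM; growth read once vehicle control cultures reached saturation at 30 °C; 1 = growth at the plate median or of vehicle wells; lower values mean less growth of the strain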
Details: S. cerevisiae deletion strains, growth OD, locus YOL147C, strain pex11, hits give low values
The campaign covered roughly 5,500 compounds. About 2,000 (36%) were called active. Another 18% or so got no clear call; they are omitted. Some of the results follow.
Quantity: normalized growth
Lab note: jot down the number only; don't add units.

- Molecule: "Cc1coc2ccccc2c1=O"
  normalized growth: 1.02
- Molecule: "CC(=O)CC(c1ccccc1)c1c(O)c2ccccc2oc1=O (stereo not drawn)"
  normalized growth: 1.01
- Molecule: "O=C(/C=C/c1ccccc1)c1ccc(O)cc1"
  normalized growth: 0.706
- Molecule: "O=c1c(-c2ccc(O)cc2)coc2cc(O)cc(O)c12"
  normalized growth: 1.01

Measured normalized growth, "CCC/C=C/C=C/[C@@H]1C[C@@H](O)[C@@H](O)C(=O)[C@H]1C=O" : 0.986

Record C=CCCCCCCCCCCCC(O)CC(O)CO (stereo not drawn) (tested in a mixture with another compound) , field normalized growth: 0.104

normalized growth recorded for this molecule, "CCCN1C[C@H](CSC)C[C@@H]2c3cccc4[nH]cc(c34)C[C@H]21" , is 1.02

molecule CCN(CCCCOC(=O)c1ccc(OC)c(OC)c1)C(C)Cc1ccc(OC)cc1 (stereo not drawn) , normalized growth observed: 0.987

The measured normalized growth associated with "O=C(O)c1nc2cc(Cl)c(Cl)cc2[nH]c1=O" reads 0.998

"Cn1c(=O)c2[nH]c(C3CCCC3)nc2n(C)c1=O" yielded normalized growth of 0.986

What the record says about "Nc1nc(N)c2nc(-c3ccccc3)c(N)nc2n1" : normalized growth is 1.01

GET /value?item= "CC(=O)N(O)CCCCCNC(=O)CCC(=O)N(O)CCCCCNC(=O)CCC(=O)N(O)CCCCCN" &field=normalized growth returns 1.02

// field: normalized growth; key: "COc1cccc2c1cc([N+](=O)[O-])c1c(C(=O)O)cc3c(c12)OCO3" ; value = 1.01

// recorded normalized growth for COc1cc([C@@H]2c3cc4c(cc3C(O[C@@H]3O[C@@H]5CO[C@@H](c6cccs6)OC5[C@H](O)[C@H]3O)C3COC(=O)[C@@H]32)OCO4)cc(OC)c1O (stereo partly drawn) : 1.01

The molecule "CC(=O)Oc1cc(OC(C)=O)c2c(=O)c(-c3ccccc3)coc2c1" showed normalized growth equal to 0.994

Kindly note the recorded normalized growth for C#CCOS(=O)OC1CCCCC1Oc1ccc(C(C)(C)C)cc1 (stereo not drawn) , which is 0.994

Looking up "COc1cccc(-c2cc(=O)c3cc(OC)ccc3o2)c1" , I found its normalized growth recorded as 0.969

For record "CC1=C2C(=CO[C@H](C)[C@H]2C)C(=O)C(C(=O)O)=C1O" the listed normalized growth is 0.977

Entry "COc1cc2c3cc1Oc1cc(ccc1O)C[C@@H]1c4c(cc(OC)c(O)c4Oc4ccc(cc4)C[C@@H]3N(C)CC2)CC[N+]1(C)C" — recorded normalized growth = 0.995

The measured normalized growth associated with "Cc1cc2cc3c(C)cc(=O)oc3c(C)c2o1" reads 0.986

# molecule "COc1ccc(-c2cc(=O)c3c(OC(C)=O)cc(OC(C)=O)cc3o2)cc1" ; its normalized growth = 0.945

Entry C=CCCCCCCCCCCCC(O)CC(O)CO (stereo not drawn) ; normalized growth = 0.778

So, "COc1ccc(-c2coc3cc(OC)cc(O)c3c2=O)cc1" ? Its normalized growth was 0.969

###

Assay: chemical genetic growth profiling, strain panel (AID 1159580);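 note: tested at 20 µM; growth read once vehicle control cultures reached saturation at 30 °C; 1 = growth at the plate median or of vehicle wells; lower values mean less growth of the strain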
Details: S. cerevisiae deletion strains, growth OD, locus YCL011C, strain gbp2, hits give low values
The campaign covered roughly 5,500 compounds. About 2,000 (36%) were called active. Roughly 18% stayed inconclusive and do not appear here. The list shows a part of the results.
Documented normalized growth across a set of molecules
In your answer, state the number alone without any accompanying words.

Use the examples below as a reference point.
- Smiles notation: "O=C(O)/C=C(\\CC(=O)O)C(=O)O"
  normalized growth: 1
- Smiles notation: "CCn1cc(C(=O)O)c(=O)c2cc(F)c(N3CCNCC3)cc21"
  normalized growth: 0.983

# molecule "CN(N=O)C(=O)N[C@@H]1[C@@H](O)[C@H](O)[C@@H](CO)O[C@@H]1O" ; its normalized growth = 1

# normalized growth of "CCN1CCN(c2cc3c(cc2F)c(=O)c(C(=O)O)cn3C2CC2)CC1" = 1.01

Record "CC(=O)Nc1ccc(O)cc1" , field normalized growth: 1.01

So, "CC1=C2C(=CO[C@H](C)[C@H]2C)C(=O)C(C(=O)O)=C1O" ? Its normalized growth was 0.975

normalized growth measured on "Nc1ccc(C(=O)O)c(O)c1" = 0.991

###

normalized growth values, listed per item
Assay: chemical genetic growth profiling, strain panel (AID 1159580);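 note: tested at 20 µM; growth read once vehicle control cultures reached saturation at 30 °C; 1 = growth at the plate median or of vehicle wells; lower values mean less growth of the strain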
Settings: S. cerevisiae deletion strains, growth OD, locus YNL067W, strain RPL9B, hits give low values
In all, about 5,500 compounds went through this assay and about 2,000 (36%) were called active. Not shown: some 18% with an inconclusive outcome. Some of the results follow.

Examples from the recorded data:
- Molecule: "CN(C)CC/C=C1/c2ccccc2COc2ccccc21"
  Reading: "1.01 (inactive)"
- Molecule: "CC(=O)O[C@@H]1CC2C(C)(C)CCC(=O)[C@]2(C)C2CC[C@@]3(C)[C@H](c4ccoc4)OC(=O)C4OC43[C@@]21C (stereo partly specified)"
  Reading: "0.987 (inactive)"
- Molecule: "CC1NC(=O)NC1=O (stereo unspecified)"
  Reading: "1 (inactive)"
- Molecule: "O=c1[nH]c2cc(Cl)c(Cl)cc2[nH]c1=O"
  Reading: "1.01 (inactive)"
- Molecule: "Nc1nc(N)c2nc(-c3ccccc3)c(N)nc2n1"
  Reading: "0.995 (inactive)"
- Molecule: "CC1=C2C(=CO[C@H](C)[C@H]2C)C(=O)C(C(=O)O)=C1O"
  Reading: "0.997 (inactive)"
- Molecule: "CCOC(=O)C1C(C=C(C)C)C1(C)C (stereo unspecified)"
  Reading: "1 (inactive)"
- Molecule: "COC(=O)C[C@H]1C(C)(C)C(=O)[C@@H]2CC3=C4CC(OC)O[C@@H](c5ccoc5)[C@]4(C)CCC3[C@@]1(C)C2=O (stereo partly specified)"
  Reading: "1.01 (inactive)"

"CN(C)CCC=C1c2ccccc2CCc2ccccc21" has a reported normalized growth of 1.01 (inactive)

Entry under test: "CC(=O)N(O)CCCCCNC(=O)CCC(=O)N(O)CCCCCNC(=O)CCC(=O)N(O)CCCCCN" . Its normalized growth was 0.999 (inactive)

Just so you know, measured normalized growth for "N[C@@H]1CONC1=O" came out at 1.02 (inactive)

CCC(/C=C/[C@@H](C)[C@H]1CCC2C3CC=C4C[C@@H](O)CC[C@]4(C)C3CC[C@@]21C)C(C)C (stereo partly specified) has a reported normalized growth of 1.02 (inactive)

The recorded normalized growth for entry CC(=O)O[C@H]1C[C@@H](O)C(C)(C)C2C[C@@H](OC(C)=O)[C@]3(C)C(CC[C@@]4(C)[C@H](c5ccoc5)OC(=O)C5OC543)[C@]21C (stereo partly specified) equals 1.02 (inactive)
